Listing: Fold change in RNA expression between the ON state and the OFF state of selected molecules
# Tested on: Renilla luciferase RNA
# METHOD_SUMMARY: Barcoded aptazyme variant library screen: un-cleaved Renilla luciferase RNA by barcode read counts, HEK293-T cells
# Format: cell-based
# MEASUREMENT_CONTEXT: un-cleaved Renilla luciferase RNA by barcode read counts; with 1 mM theophylline (ON) over without theophylline (OFF); HEK293-T cells; triplicate
# print the numeric value only

# count of solved cases: 3
RA408 (nucleic acid, expressed or natural sequence) DNA: GCGCGTCCTGGATTCGCGGAAACGCGGGAATACCAGCATCGTCTTGATGCCCTTGGAAGTCCTACATCCAGCTGACGAGTCCCAAATAGGACGAAACGCGC
0.7
RA464 (nucleic acid, expressed or natural sequence) DNA: GCGCGTCCTGGAGTGATACCAGCATCGTCTTGATGCCCTTGGCAGCACTATTCGCGGAAACGCGTACATCCAGCTGACGAGTCCCAAATAGGACGAAACGCGC
0.4
RA397 (nucleic acid, expressed or natural sequence) DNA: GCGCGTCCTGGATTCGCGGAAACGCGTACATCCAGCTGACGAGTCCCAAATAGGACGAAACGCGCCGGAATACCAGCATCGTCTTGATGCCCTTGGAAGTCCG
0.7

What measured Fold change in RNA expression between the ON state and the OFF state goes with RA447 (nucleic acid, expressed or natural sequence) DNA: GCGCGTCCTGGATTCGCGGAAACGCGTACATCCAGCTGACGAGTCCGGAATACCAGCATCGTCTTGATGCCCTTGGAAGTCCCAAATAGGACGAAACGCGC ?
0.5
